test system: PPARg:RXRa 270nM:90nM, anti-RXR (NR concentration 270 nM, RXRa partner concentration 90 nM); test: PBM binding z-score (relative to random genomic background probes); higher = stronger binding; sequences stand for … in GC…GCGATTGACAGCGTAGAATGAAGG
MEASUREMENT_LABEL: PBM binding z-score

[
  {
    "RESIDUE_SEQUENCE": "GCTAGTTGGTCAGTAAAAAGTCACACACCGGTCG",
    "MEASUREMENT_LABEL": "PBM binding z-score",
    "RESULT_NUMBER": 0.856
  },
  {
    "RESIDUE_SEQUENCE": "TCAATGAGGTTAAAGATCAGGGAACGTGGCGTCG",
    "MEASUREMENT_LABEL": "PBM binding z-score",
    "RESULT_NUMBER": 5.65
  },
  {
    "RESIDUE_SEQUENCE": "ATATGTAGGTTATCGGGTCATTAAGTTTGCGCAT",
    "MEASUREMENT_LABEL": "PBM binding z-score",
    "RESULT_NUMBER": 6.08
  },
  {
    "RESIDUE_SEQUENCE": "TCATATAGGTAATGCAGGTGAAAGTCGGCATCTA",
    "MEASUREMENT_LABEL": "PBM binding z-score",
    "RESULT_NUMBER": 2.58
  },
  {
    "RESIDUE_SEQUENCE": "CCAGACAGGTGAAAGTTAACTCAGTCTGGTACGC",
    "MEASUREMENT_LABEL": "PBM binding z-score",
    "RESULT_NUMBER": 4.15
  },
  {
    "RESIDUE_SEQUENCE": "TTACCAAGGTGAGCTGAGGTCGTTGAACCAACTC",
    "MEASUREMENT_LABEL": "PBM binding z-score",
    "RESULT_NUMBER": 0.783
  },
  {
    "RESIDUE_SEQUENCE": "TCTTGTAGATCAAGCAGGTTAATAAAGCCTGAGT",
    "MEASUREMENT_LABEL": "PBM binding z-score",
    "RESULT_NUMBER": 0.922
  },
  {
    "RESIDUE_SEQUENCE": "CATCGGAGGACAGAAGGTCAGAGCTGTCCGCTTT",
    "MEASUREMENT_LABEL": "PBM binding z-score",
    "RESULT_NUMBER": 1.27
  },
  {
    "RESIDUE_SEQUENCE": "CAGCCTAGGTCAGGGCCAATATAGGAGGAACGTT",
    "MEASUREMENT_LABEL": "PBM binding z-score",
    "RESULT_NUMBER": 1.22
  },
  {
    "RESIDUE_SEQUENCE": "TCATATAGGTAAATGCTAAGTGAAAGTCCGATCT",
    "MEASUREMENT_LABEL": "PBM binding z-score",
    "RESULT_NUMBER": 2.04
  },
  {
    "RESIDUE_SEQUENCE": "TCCAGTAGGTTAGGGGCATTCAGAATGGCGTCGA",
    "MEASUREMENT_LABEL": "PBM binding z-score",
    "RESULT_NUMBER": 3.55
  },
  {
    "RESIDUE_SEQUENCE": "CCTGCTAGGTCCATGGTCAGCTAAAGCAGCTCGC",
    "MEASUREMENT_LABEL": "PBM binding z-score",
    "RESULT_NUMBER": -0.287
  }
]
